tested_on: T1, human TREM2 (hTREM2) on cells (human, UniProt Q9NZC2 19-230)
T1 construct: also called hTREM2 expressing HEK293
T1 sequence: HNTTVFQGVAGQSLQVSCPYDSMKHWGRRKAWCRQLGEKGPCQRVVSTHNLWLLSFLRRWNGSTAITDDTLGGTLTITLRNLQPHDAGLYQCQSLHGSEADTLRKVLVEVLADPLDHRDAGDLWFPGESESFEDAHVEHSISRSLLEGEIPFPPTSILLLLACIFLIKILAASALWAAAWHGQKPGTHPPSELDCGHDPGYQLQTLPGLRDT
assay_notes: cell-based ELISA, hTREM2 vs WT 293HEK cells
experimental_endpoint: Cell based ELISA positive/negative (ratio)
One number for each entry, in ratio.

binder: 80E3C7 (antibody, V domains shown, Biotin conjugated in sup ELISA, cell-based ELISA and flow cytometry; also called anti-TREM2 antibody (E3C7); TREM2 Ab E3C7) VH: QVQLQQPGAEPLKPGASVKMSCEASGYTFTNFWITWMKLRPGQGLEWIGDIYPGTGNTNYNEKFKSRATLTVDTSSTTAYMQLSSLTSEDSAVYYCAREAYYTNPGFAYWGHGTLVTVSA VL: DVLMTQSPLSLPVNLGDQASISCKSSQNIVHSNGNTYLEWYLQRPGQSPKLLIYKVSNRFSGVPDRFSGSGSGTDFTLKISRVEAEDLGVYYCFQGSHVPYTFGGGTKLEIK
unit_annotation: ratio
Cell based ELISA positive/negative: 2.8

binder: 60H4G2 (antibody, V domains shown, Biotin conjugated in sup ELISA, cell-based ELISA and flow cytometry) VH: EVQLQESGPELVKPGASVKMSCKASGYTFTDYNMHWVKQSHGKSLEWIGYIYPNNGGTGYNQKFKGKATLTVNKSSSTAYMELRSLTSEDSAVYYCARSGRGFAYWGQGTLVTVSA VL: DIVMTQSTSSLTVTAGEKVTMSCKSSQSLLNSGNQKNYLTWYQQKPGQPPKLLIYWASSRESGVPDRFTGRGSGTDFTLTISSVQAEDLAVYYCQNDYSYPFTFGSGTKLEIK
unit_annotation: ratio
Cell based ELISA positive/negative: 1.38

Could you share which Cell based ELISA positive/negative value was measured for 83E10B12 (antibody, V domains shown, Biotin conjugated in sup ELISA, cell-based ELISA and flow cytometry) VH: QVQLQESGPELVKPGASVKISCKASGYIFSYSWMNWVKQRPGKGLEWIGRIYPGDGDADYNGKFKGKATLTADKSSNTAYMQLTSLTSEDSAVYFCARLHIYDGYYVSVYWGQGTLVTVSA VL: DIQMTQTTSCLSASLGDRVTISCRASQDINNYLSWYQQKPDGTVKLLIYYTSKLHSGVPSRFSGSGSGTDYSLTIGNLEQEDVATYFCQQGDTLPWTFGGGTRLEIK ?
1.91
